PROTOCOL DESCRIPTION: recombinant barcode read abundance after kanamycin selection (control-corrected) (log10(CPM+1)); higher = more efficient recombination; sequences stand for … in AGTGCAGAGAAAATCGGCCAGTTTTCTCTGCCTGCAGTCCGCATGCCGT…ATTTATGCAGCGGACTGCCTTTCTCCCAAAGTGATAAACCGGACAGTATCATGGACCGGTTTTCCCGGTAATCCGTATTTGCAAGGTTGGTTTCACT; site = the 11-nt target
OBSERVATION TYPE: recombinant barcode read abundance (log10)

| CHAIN | VALUE MEASURED |
| --- | --- |
| GGTGCCCTATGGGTTCTAACCTGTTGCCGAG [GGTGCCCCTCG_LTGcore_TA_RTGcore_CT] (site GGTGCCCCTCG) (LTG core: TA, RTG core: CT) | 0.122 |
| GAGCCCAAATGGGTTCTAACCTGTTGCCTTT [GAGCCCACTAG_LTGcore_AA_RTGcore_AA] (site GAGCCCACTAG) (LTG core: AA, RTG core: AA) | 0.102 |
| AGGCGGTATTGGGTTCTAACCTGTTGCTTAT [AGGCGGTCTAA_LTGcore_AT_RTGcore_AT] (site AGGCGGTCTAA) (LTG core: AT, RTG core: AT) | 0.109 |
| AGGAGGTCTTGGGTTCTAACCTGTTGCCTAG [AGGAGGTCTAG_LTGcore_CT_RTGcore_CT] (site AGGAGGTCTAG) (LTG core: CT, RTG core: CT) | 1.59 |

----------
PROTOCOL DESCRIPTION: recombinant barcode read abundance after kanamycin selection (control-corrected) (log10(CPM+1)); higher = more efficient recombination; sequences stand for … in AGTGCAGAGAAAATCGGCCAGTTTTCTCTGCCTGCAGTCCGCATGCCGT…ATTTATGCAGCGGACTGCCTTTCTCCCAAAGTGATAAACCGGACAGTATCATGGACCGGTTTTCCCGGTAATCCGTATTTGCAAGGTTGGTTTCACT; site = the 11-nt target
Respond with Y for recombinant barcode read abundance (log10) values of 0.2 and above, N for values below.

| CHAIN | CLASS ASSIGNMENT |
| --- | --- |
| AGGCGGTTCTGGGTTCTAACCTGTTGCTTGA [AGGCGGTCTAA_LTGcore_TC_RTGcore_TC] (site AGGCGGTCTAA) (LTG core: TC, RTG core: TC) | N |
| GGCTCCCGCTGGGTTCTAACCTGTTGCGGGC [GGCTCCCCTCC_LTGcore_GC_RTGcore_GC] (site GGCTCCCCTCC) (LTG core: GC, RTG core: GC) | N |
| GTCGCCCCTTGGGTTCTAACCTGTTGCTACA [GTCGCCCCTTA_LTGcore_CT_RTGcore_TG] (site GTCGCCCCTTA) (LTG core: CT, RTG core: TG) | N |
| CGGTCCCGATGGGTTCTAACCTGTTGCCATC [CGGTCCCCTTG_LTGcore_GA_RTGcore_GA] (site CGGTCCCCTTG) (LTG core: GA, RTG core: GA) | Y |
| AAACACACATGGGTTCTAACCTGTTGCCTAG [AAACACACTAG_LTGcore_CA_RTGcore_CT] (site AAACACACTAG) (LTG core: CA, RTG core: CT) | Y |
| CGGTCCCCGTGGGTTCTAACCTGTTGCCAAG [CGGTCCCCTTG_LTGcore_CG_RTGcore_CT] (site CGGTCCCCTTG) (LTG core: CG, RTG core: CT) | Y |
| TAGAGGGCTTGGGTTCTAACCTGTTGCGGCG [TAGAGGGCTCC_LTGcore_CT_RTGcore_CG] (site TAGAGGGCTCC) (LTG core: CT, RTG core: CG) | Y |
| GGCTCCCCTTGGGTTCTAACCTGTTGCGGAG [GGCTCCCCTCC_LTGcore_CT_RTGcore_CT] (site GGCTCCCCTCC) (LTG core: CT, RTG core: CT) | Y |
| GGGAGCCAATGGGTTCTAACCTGTTGCTGTT [GGGAGCCCTCA_LTGcore_AA_RTGcore_AA] (site GGGAGCCCTCA) (LTG core: AA, RTG core: AA) | Y |
| CGCGCCCCTTGGGTTCTAACCTGTTGCGGCT [CGCGCCCCTCC_LTGcore_CT_RTGcore_AG] (site CGCGCCCCTCC) (LTG core: CT, RTG core: AG) | N |
| TCGCGACTATGGGTTCTAACCTGTTGCCGTA [TCGCGACCTCG_LTGcore_TA_RTGcore_TA] (site TCGCGACCTCG) (LTG core: TA, RTG core: TA) | N |
| GAGGCCTTGTGGGTTCTAACCTGTTGCCAAG [GAGGCCTCTTG_LTGcore_TG_RTGcore_CT] (site GAGGCCTCTTG) (LTG core: TG, RTG core: CT) | N |
| GGGCGGAGCTGGGTTCTAACCTGTTGCGGGC [GGGCGGACTCC_LTGcore_GC_RTGcore_GC] (site GGGCGGACTCC) (LTG core: GC, RTG core: GC) | Y |
| GGGCGGAATTGGGTTCTAACCTGTTGCGGAT [GGGCGGACTCC_LTGcore_AT_RTGcore_AT] (site GGGCGGACTCC) (LTG core: AT, RTG core: AT) | N |
| TCGCGACAGTGGGTTCTAACCTGTTGCCGAG [TCGCGACCTCG_LTGcore_AG_RTGcore_CT] (site TCGCGACCTCG) (LTG core: AG, RTG core: CT) | N |
| TGATACCTGTGGGTTCTAACCTGTTGCGTAG [TGATACCCTAC_LTGcore_TG_RTGcore_CT] (site TGATACCCTAC) (LTG core: TG, RTG core: CT) | N |

The reported measurements were obtained from the supplement of paper PMC11208160.
